- Test target: CDK2 (Homo sapiens, UniProt P24941)
- Construct: endogenous in cells; host or cells: MDA-MB-231
- Protocol description: CDK protein degradation activity (Western blotting), CDK2
- Assay type: cell-based
- Test parameters: MDA-MB-231 cells, 10 μM, 16 hours, Western blot
Give measured Enzyme degradation CDK2 (% remaining) @ 10 μM for each item. Keep answers brief.

Given the molecule O=C1CC[C@H](N2C(=O)c3cc(F)c(N4CCC(CN5CCN(c6ccc(Nc7ncnc8c7ncn8C7CC(NC(=O)c8cccc(C(F)(F)F)n8)C7)cc6)CC5)CC4)cc3C2=O)C(=O)N1 (stereo partly shown) , write its reported Enzyme degradation CDK2 (% remaining) @ 10 μM.
20/20/20%

Given the molecule O=C1CC[C@H](N2C(=O)c3ccc(N4CC(C(=O)N5CCC(N6CCN(c7ccc(Nc8ncnc9c8ncn9[C@H]8C[C@@H](NC(=O)Cc9ccccc9)C8)cc7)CC6)CC5)C4)cc3C2=O)C(=O)N1 , write its reported Enzyme degradation CDK2 (% remaining) @ 10 μM.
0/0/0%

Given the molecule O=C1CC[C@H](N2C(=O)c3cc(F)c(N4CCC(CN5CCN(c6ccc(Nc7ncnc8c7ncn8C7CC(NC(=O)c8c(Cl)cccc8Cl)C7)cc6)CC5)CC4)cc3C2=O)C(=O)N1 (stereo partly shown) , write its reported Enzyme degradation CDK2 (% remaining) @ 10 μM.
30/30/30%

Given the molecule O=C1CC[C@H](n2nnc3ccc(N4CCN(CCCC5CCN(c6ccc(Nc7ncnc8c7ncn8C7CC(NC(=O)Cc8ccccc8)C7)cc6)CC5)CC4)cc3c2=O)C(=O)N1 (stereo partly shown) , write its reported Enzyme degradation CDK2 (% remaining) @ 10 μM.
0/0/0%

====

- Test target: CDK2 (Homo sapiens)
- Construct: endogenous in cells; host or cells: MDA-MB-231
- Protocol description: CDK protein degradation activity (Western blotting), CDK2
- Format: cell-based
- Test parameters: MDA-MB-231 cells, 0.1 μM, 16 hours, Western blot
Labelling field: enter Fulfilled if recorded Enzyme degradation CDK2 (% remaining) @ 0.1 μM is less than 60%. Enter Not fulfilled if it equals or exceeds that cut-off.

# check: Enzyme degradation CDK2 (% remaining) @ 0.1 μM < 60% for CC(=O)NC1CC(n2cnc3c(NCC4CCN(CC5CCN(C(=O)COc6cccc7c6C(=O)N([C@H]6CCC(=O)NC6=O)C7=O)CC5)CC4)ncnc32)C1 (some centres unmarked)
Not fulfilled

# check: Enzyme degradation CDK2 (% remaining) @ 0.1 μM < 60% for O=C1CC[C@H](N2C(=O)c3cc(F)c(N4CCC5(CC4)CC(N4CCN(c6ccc(Nc7ncnc8c7ncn8[C@H]7C[C@@H](NC(=O)Cc8ccccc8)C7)cc6)CC4)C5)cc3C2=O)C(=O)N1
Not fulfilled

# check: Enzyme degradation CDK2 (% remaining) @ 0.1 μM < 60% for Cc1cccc(C(=O)N[C@H]2C[C@@H](n3cnc4c(Nc5ccc(N6CCN(CC7CCN(C(=O)COc8ccc9c(c8)C(=O)N([C@H]8CCC(=O)NC8=O)C9=O)CC7)CC6)cc5)ncnc43)C2)n1
Fulfilled

# check: Enzyme degradation CDK2 (% remaining) @ 0.1 μM < 60% for Cc1cccc(C(=O)N[C@H]2C[C@@H](n3cnc4c(NCc5cccc(N6CCN(CC7CCN(c8ccc9c(c8)C(=O)N([C@H]8CCC(=O)NC8=O)C9=O)CC7)CC6)c5)ncnc43)C2)n1
Fulfilled

# check: Enzyme degradation CDK2 (% remaining) @ 0.1 μM < 60% for Cc1cccc(C(=O)NC2CC(n3cnc4c(NCCCN5CCN(CC6CCN(C(=O)CNc7cccc8c7C(=O)N([C@@H]7CCC(=O)NC7=O)C8=O)CC6)CC5)ncnc43)C2)n1 (some centres unmarked)
Not fulfilled

# check: Enzyme degradation CDK2 (% remaining) @ 0.1 μM < 60% for O=C1CC[C@H](N2C(=O)c3ccc(N4CC(C(=O)N5CCN(C6CCN(c7ccc(Nc8ncnc9c8ncn9C8CC(NC(=O)Cc9ccccc9)C8)cc7)CC6)CC5)C4)cc3C2=O)C(=O)N1 (some centres unmarked)
Not fulfilled

# check: Enzyme degradation CDK2 (% remaining) @ 0.1 μM < 60% for O=C1CC[C@H](N2C(=O)c3cc(F)c(N4CCC(C(=O)N5CCC6(CC5)CC(N5CCN(c7ccc(Nc8ncnc9c8ncn9C8CC(NC(=O)c9c(Cl)cccc9Cl)C8)cc7)CC5)C6)CC4)cc3C2=O)C(=O)N1 (some centres unmarked)
Fulfilled

Taken from patent US20260125382A1.
